System: HKE3
Experiment: Cell viability, HKE3 colon cancer cells
Type: cell-based, human
Details: Homo sapiens, read-out: IC50 (−LogM), HKE3, Colon, second HKE3 line (converted)
Consider the following compounds and their measured IC50 readings.
Respond with the bare value in µM.

IN: Lab request: please report IC50 under test system HKE3 for O=Cc1cn(Cc2ccccc2)c2ccccc12
OUT: 5.01

Continuing:
IN: Lab request: please report IC50 under test system HKE3 for O=Cc1cn(Cc2cccc([N+](=O)[O-])c2)c2ccccc12
OUT: 0.398

IN: Lab request: please report IC50 under test system HKE3 for O=Cc1cn(Cc2cccc(Cl)c2)c2ccccc12
OUT: 1.26

IN: Lab request: please report IC50 under test system HKE3 for O=Cc1cn(Cc2cccc(C(F)(F)F)c2)c2ccccc12
OUT: 5.01

IN: Lab request: please report IC50 under test system HKE3 for O=Cc1cn(Cc2ccccc2F)c2ccccc12
OUT: 10
